Measured values drawn from ChEMBL document CHEMBL1132892 for this set.

# Experimental system: Integrin alpha-4 (Homo sapiens)
# Sequence (P13612 whole entry): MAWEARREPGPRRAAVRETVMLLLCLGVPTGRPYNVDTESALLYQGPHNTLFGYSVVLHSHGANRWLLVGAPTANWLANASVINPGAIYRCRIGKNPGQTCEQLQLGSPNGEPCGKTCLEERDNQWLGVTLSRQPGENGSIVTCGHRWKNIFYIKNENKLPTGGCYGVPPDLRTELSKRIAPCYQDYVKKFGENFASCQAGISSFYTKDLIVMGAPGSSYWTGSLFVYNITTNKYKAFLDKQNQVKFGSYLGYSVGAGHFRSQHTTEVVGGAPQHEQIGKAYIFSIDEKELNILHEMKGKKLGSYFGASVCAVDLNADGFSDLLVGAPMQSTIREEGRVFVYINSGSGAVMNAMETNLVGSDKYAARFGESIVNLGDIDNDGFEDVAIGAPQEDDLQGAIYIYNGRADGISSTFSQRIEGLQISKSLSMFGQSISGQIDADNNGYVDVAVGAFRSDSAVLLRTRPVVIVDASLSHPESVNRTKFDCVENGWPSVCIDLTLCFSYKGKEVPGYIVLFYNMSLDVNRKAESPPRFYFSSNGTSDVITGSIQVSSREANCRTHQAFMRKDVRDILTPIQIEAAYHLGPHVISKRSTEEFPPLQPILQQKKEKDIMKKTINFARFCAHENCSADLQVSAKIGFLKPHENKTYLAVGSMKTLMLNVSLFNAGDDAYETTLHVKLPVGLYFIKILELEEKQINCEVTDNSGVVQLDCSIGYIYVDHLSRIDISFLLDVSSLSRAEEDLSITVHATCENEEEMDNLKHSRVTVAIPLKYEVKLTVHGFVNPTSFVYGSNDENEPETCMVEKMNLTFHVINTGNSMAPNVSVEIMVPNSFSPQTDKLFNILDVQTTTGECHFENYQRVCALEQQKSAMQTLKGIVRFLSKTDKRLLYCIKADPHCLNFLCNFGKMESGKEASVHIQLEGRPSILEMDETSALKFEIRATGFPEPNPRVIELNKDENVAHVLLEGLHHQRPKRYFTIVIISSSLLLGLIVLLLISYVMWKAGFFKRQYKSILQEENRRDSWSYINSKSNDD
# Assay method text: Compound was evaluated for VCAM-VLA-4 antagonistic activity using solid phase assay
# Type: functional
Property name: pIC50
The read-out pIC50 is expressed as -log10 of concentration in moles per litre.

Use these answered entries as a reference point.
CC(=O)N1CCC(c2ccc(O)cc2)C1C(=O)N[C@H]1CCSC[C@@H](C(=O)O)NC(=O)C2(CCCC2)CCNC1=O (some centres undefined); 8.57
CC(=O)N1CCC(c2ccc(O)cc2)C1C(=O)N[C@H]1CSCC[C@@H](C(=O)O)NC(=O)C2(CCCC2)CCNC1=O (some centres undefined); 9.30
CC(=O)N1CCC(c2ccc(O)cc2)C1C(=O)N[C@H]1CSSC[C@@H](C(=O)O)NC(=O)C2(CCCC2)CCNC1=O (some centres undefined); 10.00

Would you kindly look at the next entry?
Task item: Kindly state the measured pIC50 obtained for CC(=O)N1CCC(c2ccc(O)cc2)C1C(=O)N[C@H]1CCSCC[C@@H](C(=O)O)NC(=O)C2(CCCC2)CCNC1=O (some centres undefined) with Integrin alpha-4 (Homo sapiens).
Reply: 7.46
